Target: T1, HCV bt-151-171 (Peptide 3, HCVc 151-171) (Hepatitis C virus (numbering per HCV-1), biotin (carboxy-terminal per; N-terminal per))
T1 peptide: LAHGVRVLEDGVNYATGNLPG
Experiment: EIA, captured mAb + biotin peptide
Let's look at some binders and their measured Reactivity (OD 492 nm).
property_label: Reactivity (OD 492 nm)

[[record]]
binder = "HCV 208B-517 (antibody, V domains shown) VH: QVQLKQSGPGLVQPSQSLSITCTVSGFSLITHGVHWVRQSPGKGLEWLGVIWSGGSTDYNAAFISRLSISKDTSKSQVFLKMSSLQADDTAIYYCARNGGATAFDYWGQGTTLTVSS VL: DIVMTQSPATLSVTPGDRVSLSCRASQSISDYLHWYQQKSHESPRLLIKYASQSISGIPSRFRGSGSGSHFTLSINSVEPEDVGVYYCQNGHSFPWTFGGGTKLEIKR"
result = "0.7 OD units"

[[record]]
binder = "HCV 208A-692 (antibody, V domains shown) VH: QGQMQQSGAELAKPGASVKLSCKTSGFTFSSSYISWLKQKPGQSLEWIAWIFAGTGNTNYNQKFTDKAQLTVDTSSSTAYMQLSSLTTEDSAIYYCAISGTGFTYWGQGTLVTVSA VL: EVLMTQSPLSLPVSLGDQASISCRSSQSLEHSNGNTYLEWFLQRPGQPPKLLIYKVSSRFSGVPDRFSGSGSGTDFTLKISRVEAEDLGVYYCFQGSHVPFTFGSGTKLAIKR"
result = "0.07 OD units"

[[record]]
binder = "HCV 208A-830 (antibody, V domains shown) VH: EVRLQQPGPEVEKPGASVKISCKTSGYTFTEYAIHWVKQSHGESLEWIGGINPSNGDPIYNQIFKDKATLTVDRSSNTAYMGLRSLTVGDSGVYFCVRRQLDYFDFWGQGASLTVSS VL: DIVLTQSPASLAVSLGQRATISCRSSQSVSTSRYSYLHWYQQKPGQPPKLLIKYASNLESGVPARFSGSGSGTDFTLNIHPVGEEDPATYYCQHSWEFPFTFGSGTKLEIKR"
result = "0.08 OD units"

[[record]]
binder = "HCV 208A-159 (antibody, V domains shown) VH: QLQQSGPAQVKPGASVMISCKTSGYTFTENAMHWVKQSHGKSLEWIGGVNPNNGDTIFNQKFKDKAALTVDKSSSTAFMELRSLTSEESTVYYCVRRELDFFDYWGQGTSVTVSS VL: DIVLTQSPASLAVSLGQRATISCRASQSVSTSRYSYVHWYQQKPGQPPKLLIKYAANLESGVPARFSGSGSGTDFTLNIHPVAEEDAAAYYCQHSWEFPFTFGSGTKLEIKR"
result = "0.19 OD units"

[[record]]
binder = "HCV 208A-352 (antibody, V domains shown) VH: QGQMQQSGAELVKPGASVKLSCKTSGFTFSSSFISWLKQKPGQSLEWIAWIYAGTGNTNYNQKFTDKAQLTVDTSSSTAYMQFSSLTTEDSAIYYCAISGTGFTYWGQGTLVTVSA VL: DVLMAQTPLSLPVTLGDQASISCRSSQSLVHSNGNTYLEWFLQKPGQSPKLLIYNVSNRFSGVPDRFSGSGSGTDFTLKISRVEAEDLGVYYCFQGSHVPLTFGSGTKLEIKR"
result = "0.06 OD units"

[[record]]
binder = "HCV 208A-557 (antibody, V domains shown) VH: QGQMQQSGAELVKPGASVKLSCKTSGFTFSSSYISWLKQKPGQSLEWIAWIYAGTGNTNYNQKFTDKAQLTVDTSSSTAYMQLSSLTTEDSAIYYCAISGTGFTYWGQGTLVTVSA VL: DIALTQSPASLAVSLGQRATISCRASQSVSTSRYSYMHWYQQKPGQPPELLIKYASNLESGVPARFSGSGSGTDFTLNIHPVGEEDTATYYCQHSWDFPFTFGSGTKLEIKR"
result = "0.06 OD units"

[[record]]
binder = "HCV 208B-612 (antibody, V domains shown) VH: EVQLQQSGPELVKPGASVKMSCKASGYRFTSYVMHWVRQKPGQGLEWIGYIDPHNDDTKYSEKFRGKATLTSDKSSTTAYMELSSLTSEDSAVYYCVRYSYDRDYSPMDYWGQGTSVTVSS VL: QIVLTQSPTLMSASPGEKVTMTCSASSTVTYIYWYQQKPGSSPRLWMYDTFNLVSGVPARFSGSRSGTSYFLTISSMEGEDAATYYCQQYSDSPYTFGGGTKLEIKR"
result = "0.15 OD units"

[[record]]
binder = "HCV 208A-874 (antibody, V domains shown) VH: QVQLQQPGAELVKPGASVKLSCKASGYTLSSYWMHWVKQRPGQGLEWIGEIHPSDSYTSYNQKFKDKATLTVDKSSSTAYMQLSSLTSEDSAVYYCARGGYYRYDEFAYWGQGTLVTVSA VL: DIVMTQSHKFMSTSIGDRVSITCKASQNVSPAVAWYQQKPGQSPKLLIYSASSRYTGVPDRFTGSGSGTAFTFTISSVQAEDLAVYFCQQHFSTPWTFGGGTMLEIKR"
result = "0.06 OD units"

[[record]]
binder = "HCV 208B-395 (antibody, V domains shown) VH: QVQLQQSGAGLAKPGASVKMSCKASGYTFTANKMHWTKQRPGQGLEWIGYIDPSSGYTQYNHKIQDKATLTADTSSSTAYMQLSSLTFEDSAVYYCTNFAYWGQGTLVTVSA VL: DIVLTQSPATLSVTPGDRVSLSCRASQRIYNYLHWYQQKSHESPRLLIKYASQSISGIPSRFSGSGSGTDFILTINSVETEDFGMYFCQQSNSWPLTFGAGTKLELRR"
result = "3.69 OD units"

